Below is a list of entries, each paired with its recorded IC50 value.
Biological target: recombinant human secretory phospholipase A2 (Homo sapiens, UniProt P14555)
Sequence (P14555 21-144): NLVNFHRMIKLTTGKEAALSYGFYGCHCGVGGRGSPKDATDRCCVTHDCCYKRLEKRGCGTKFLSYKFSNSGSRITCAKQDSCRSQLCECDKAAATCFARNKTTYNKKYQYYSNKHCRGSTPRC
Test: Inhibition Test of Human Secretory Phospholipase A2 (chromogenic assay)
Type: biochemical
Conditions: sPLA2 50 ng/well, 40° C., 30 minutes, OD 405 nm, 96 well microtiterplate
Experimental: Test Example: Inhibition Test of Human Secretory Phospholipase A2 In order to identify and evaluate an inhibitor of recombinant human secretory phospholipase A2, the following chromogenic assay is utilized. The assay herein has been applied for high volume screening wherein 96 well microtiterplate is used. […] 5) Changes in absorbancy for 30 minutes are measured by a plate reader, and inhibition activity was calculated (OD: 405 nm). […]
Your answer should be a plain number; it is taken to be in nM.

[[record]]
molecule = "CCc1c(C(=O)C(N)=O)c2c(OCC(=O)O)nccn2c1Cc1ccc2ccsc2c1 [Compound I-12]"
observed = 10


Given the entry CCc1c(C(=O)C(N)=O)c2c(OCC(=O)O)nc(-c3ccccc3)cn2c1Cc1ccccc1 [Compound I-44] , report its measured IC50. 7

What about this molecule? CCc1c(C(=O)C(N)=O)c2c(OCC(=O)O)nc(C)cn2c1Cc1ccccc1-c1ccsc1 [Compound I-102] 20

Same lookup for CCc1c(C(=O)C(N)=O)c2c(OCC(=O)O)nc(C)cn2c1Cc1ccccc1-c1cccs1 [Compound I-101] , please. 19
